- TEST TARGET: hCA I (Homo sapiens)
- Construct: gene CA1; not described; cytosolic isoform
- Sequence (P00915 2-261): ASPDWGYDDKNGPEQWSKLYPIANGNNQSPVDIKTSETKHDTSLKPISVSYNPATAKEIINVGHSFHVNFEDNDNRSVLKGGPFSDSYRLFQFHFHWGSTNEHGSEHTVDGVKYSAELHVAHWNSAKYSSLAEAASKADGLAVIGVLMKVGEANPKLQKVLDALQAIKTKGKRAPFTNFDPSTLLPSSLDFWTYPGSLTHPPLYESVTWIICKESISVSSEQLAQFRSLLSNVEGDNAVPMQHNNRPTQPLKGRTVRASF
- ASSAY SUMMARY: stopped-flow CO2 hydration
- Type: biochemical
OUTCOME MEASURE: Ki
Report the figure along with its unit, number first.

* CC(=NNC(=O)c1ccc(S(N)(=O)=O)cc1)c1cc2ccccc2o1 [5a] | 37.4 nM
* CC(=NNc1ccc(S(N)(=O)=O)cc1)c1cc2ccccc2o1 [4a] | 163 nM
* CC(=NNC(=O)c1ccc(S(N)(=O)=O)cc1)c1cc2cc(Br)ccc2o1 [5b] | 63.9 nM

# return recorded Ki for entry Cc1ccc(S(=O)(=O)CC(=NNc2ccc(S(N)(=O)=O)cc2)c2cc3ccccc3o2)cc1 [9a]
1290 nM

# return recorded Ki for entry Cc1ccc(S(=O)(=O)CC(=NNC(=O)c2ccc(S(N)(=O)=O)cc2)c2cc3cc(Br)ccc3o2)cc1 [10d]
828 nM

====

- TEST TARGET: hCA IX (Homo sapiens, UniProt Q16790)
- Construct: gene CA9; not described; transmembrane tumour-associated isoform
- ASSAY SUMMARY: stopped-flow CO2 hydration
- Format: biochemical
OUTCOME MEASURE: Ki (nM)
# value in nM; strip the unit string

* NS(=O)(=O)c1ccc(C(=O)NN=C(CS(=O)(=O)c2ccccc2)c2cc3cc(Br)ccc3o2)cc1 [10c] | 85.4
* NS(=O)(=O)c1ccc(NN=C(CS(=O)(=O)c2ccccc2)c2cc3cc(Br)ccc3o2)cc1 | 44.6
* Cc1ccc(S(=O)(=O)CC(=NNc2ccc(S(N)(=O)=O)cc2)c2cc3cc(Br)ccc3o2)cc1 | 10
* NS(=O)(=O)c1ccc(C(=O)NN=C(CS(=O)(=O)c2ccccc2)c2cc3ccccc3o2)cc1 [10a] | 76.6
* Cc1ccc(S(=O)(=O)CC(=NNc2ccc(S(N)(=O)=O)cc2)c2cc3ccccc3o2)cc1 | 32.8
* CC(=NNC(=O)c1ccc(S(N)(=O)=O)cc1)c1cc2cc(Br)ccc2o1 | 27.7

# return recorded Ki for entry `CC(=NNC(=O)c1ccc(S(N)(=O)=O)cc1)c1cc2ccccc2o1`
60.4

# return recorded Ki for entry `CC(=NNc1ccc(S(N)(=O)=O)cc1)c1cc2ccccc2o1`
33.3

# return recorded Ki for entry Cc1ccc(S(=O)(=O)CC(=NNC(=O)c2ccc(S(N)(=O)=O)cc2)c2cc3ccccc3o2)cc1 [10b]
51.1

# return recorded Ki for entry `CC(=NNc1ccc(S(N)(=O)=O)cc1)c1cc2cc(Br)ccc2o1`
48.4

# return recorded Ki for entry Cc1ccc(S(=O)(=O)CC(=NNC(=O)c2ccc(S(N)(=O)=O)cc2)c2cc3cc(Br)ccc3o2)cc1 [10d]
97.5

====

- TEST TARGET: hCA XII (Homo sapiens)
- Construct: gene CA12; not described; transmembrane tumour-associated isoform
- Sequence (O43570 25-354): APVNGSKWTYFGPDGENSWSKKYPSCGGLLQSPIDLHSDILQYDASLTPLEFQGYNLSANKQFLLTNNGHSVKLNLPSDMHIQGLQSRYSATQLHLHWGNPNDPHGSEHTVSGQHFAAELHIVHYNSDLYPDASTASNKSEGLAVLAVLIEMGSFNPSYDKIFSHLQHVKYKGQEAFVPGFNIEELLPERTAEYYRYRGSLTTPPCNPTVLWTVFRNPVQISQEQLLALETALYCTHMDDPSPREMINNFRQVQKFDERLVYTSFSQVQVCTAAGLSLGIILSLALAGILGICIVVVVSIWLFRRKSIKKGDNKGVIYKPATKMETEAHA
- ASSAY SUMMARY: stopped-flow CO2 hydration
- Type: biochemical
Ki reference
Report the figure along with its unit, number first.

See these solved cases before continuing.
- CC(=NNc1ccc(S(N)(=O)=O)cc1)c1cc2cc(Br)ccc2o1: 38.8 nM
- CC(=NNC(=O)c1ccc(S(N)(=O)=O)cc1)c1cc2ccccc2o1: 10.1 nM

Next item in the queue.
# return recorded Ki for entry `Cc1ccc(S(=O)(=O)CC(=NNc2ccc(S(N)(=O)=O)cc2)c2cc3ccccc3o2)cc1`
49.7 nM
